# Test system: MS2 coat protein
# Assay notes: apparent KD of MS2 coat protein; designed switch direction (-1 OFF switch, 1 ON switch): 1; higher = weaker reporter binding
# Run conditions: input ligand: microRNA oligo, concentration not stated
Entries and their apparent KD of MS2 coat protein

{"columns": ["Sequence chain", "apparent KD of MS2 coat protein (nM)"],
 "data": [
  ["UAUAAACAUGAGGAUCACCCAUGUAAUAAUAUGGGAGGAUAUCAGAAUUUAUUUAUUUAAUGAGAAGGCCUAAUAU [Mat - Same State 1 - Mod of Eli - D67] (Eterna round: R96, puzzle: Same State 1)", 440],
  ["GUAGCAUACCGAGGAUAUUCAUAUAAUAAAUAACAUGAGGAUCACCCAUGUUGGCGAAAGCCUUGGGAGAAGGCGGAAUGCUAC [Xeonanis - 20 Mod56] (Eterna round: R96, puzzle: Same State NG 2)", 45.8]
]}

====

# Tested on: MS2 coat protein
# Assay notes: apparent KD of MS2 coat protein; designed switch direction (-1 OFF switch, 1 ON switch): -1; higher = weaker reporter binding
# Run conditions: input ligand: none
Entries and their apparent KD of MS2 coat protein

{"columns": ["Sequence chain", "apparent KD of MS2 coat protein [nM]"],
 "data": [
  ["AUGAGGUGAGGAUAUACGAGAUGAUAUUGCAGAGCAAGUCAGUAGAAGGCACAUGAGGAUCACCCAUGUUCGGG [Eternabot (L2) Solution 93] (Eterna round: R97, puzzle: Exclusion 4)", 397],
  ["GGUUUGCAGCAGGAUAUCCAUCCGCGGUAUGGUGGAGAAGGGCUGACAUGAGGAUCACCCAUGUGCGUCCUAGG [salish99_ex6_r4_017] (Eterna round: R97, puzzle: Exclusion 6)", 27.6],
  ["AGUACUAACACGAAAGUGUUAGUACAAUAAGCUUGUGAAACAUGAGGAUCACCCAUGUCCUCAUAAGCUCGUCUUAU [Mat - Sensor v2 -ver2- JL mod - D68] (Eterna round: R96, puzzle: Sensor v2, turn-off variant 2)", 17.6],
  ["CGUCUGUUAGGAUAUGACCCGCGUACCGUGUCGAGCCGGGUUCAGAAGGAACAUGAGGAUCACCCAUGUGAGAA [Eternabot (L1) Solution 12] (Eterna round: R97, puzzle: Exclusion 4)", 27.3],
  ["UUUUUGUAUGAAGGAUAUACUUAACAUGAGGAUCACCCAUGUGGUGUUGUGAGUGAGUGAGUUUAGUAGAAGGUCAAGUAUUUU [JMF's solution 46] (Eterna round: R96, puzzle: Exclusion NG 2)", 390],
  ["CAGCUGAAAGUGAGGAUAUAGACUGCCUCGGCAGUCUAGAAGGCACAUGAGGAUCACCCAUGUCUCAACAGCUG [BmEx4/1-B2] (Eterna round: R97, puzzle: Brourd's mod of Exclusion 4)", 11.3],
  ["UCACGGGACUGAGGAUAUACAUGAAUUAUUUUUGUAGAAGGCAGAAUGUUAGUUUAUUCACUAUACAUGAGGAUCACCCAUGUU [JR_ExcNG1_Sub021] (Eterna round: R96, puzzle: Exclusion NG 1)", 32.9],
  ["GCAAGCUUUUGCUCGGCUUACAUGAGGAUCACCCAUGUGGGCCCGGGCCCGGGCCCGCCGGGCCCGGGCCCGGGCCC [-58.5, -80.7, A 10%] (Eterna round: R97, puzzle: Sensor, turn-off variant 1)", 25.4],
  ["AAGUGCAAAGGAUAUACGUGACUUACUCCAAUUGCUACCCGACAUGAGGAUCACCCAUGUAGAAGGUUGCGCAC [Eternabot (Original) Solution 20] (Eterna round: R97, puzzle: Exclusion 2)", 16.6]
]}
